Test: MDCK permeability assay
Format: in vitro ADME
Conditions: dog, MDCK; A-B, pH 7.4
Text: This assay is for generating screening data only, and to estimate the intestinal absorption potential of drug candidates. The study will be conducted in accordance with International Bioethical Standards “World MedicalAssociation Declaration of Helsinki. Cell line: • ▪ MDCK (ATCC), or MDCK MDR1 (NKI). […]
Threshold-based label: Papp A→B at 90 min under 3 ×10⁻⁶ cm/s gives true (1), Papp A→B at 90 min not under 3 ×10⁻⁶ cm/s gives false (0).

Does COc1cc2c(cc1Nc1ncc(Cl)c(N3CC(C)(CC(=O)O)c4ccc(F)cc43)n1)CN(C)CC2 (centres unmarked) [Compound 10, reference compound] have Papp A→B at 90 min strictly under 3 ×10⁻⁶ cm/s?
true (1)

Does COc1cc2c(cc1Nc1ncc(Cl)c(N3CC(C)(CC(=O)O)c4ccccc43)n1)CN(C)CC2 (centres unmarked) have Papp A→B at 90 min strictly under 3 ×10⁻⁶ cm/s?
true (1)

Does COc1cc2c(cc1Nc1ncc(Cl)c(N3CC(CC(=O)O)c4ccccc43)n1)CN(C)CC2 (centres unmarked) [Compound 8, reference compound] have Papp A→B at 90 min strictly under 3 ×10⁻⁶ cm/s?
false (0)

Does COc1cc2c(cc1Nc1ncc(Cl)c(N3CC(C(=O)O)c4ccccc43)n1)CN(C)CC2 (centres unmarked) [Compound 7, reference compound] have Papp A→B at 90 min strictly under 3 ×10⁻⁶ cm/s?
false (0)

Does CN1CCc2cc(F)c(Nc3ncc(Cl)c(N4CC(C)(CC(=O)O)c5ccccc54)n3)cc2C1 (centres unmarked) have Papp A→B at 90 min strictly under 3 ×10⁻⁶ cm/s?
false (0)

---

test: Kinetic solubility assay; assay type: physicochemical; settings: pH 7.4, aqueous buffer, kinetic from dmso stock; phosphate buffer pH7.4, 1% DMSO, 1 hour at room temperature
Give log10 solubility kinetic at 1 h for every item shown.
Please note: log10 values; quantity solubility kinetic at 1 h; unit µM.

Name the reported log10 solubility kinetic at 1 h value associated with the molecule COc1cc2c(cc1Nc1ncc(Cl)c(N3CC(C)(CC(=O)O)c4ccc(F)cc43)n1)CN(C)CC2 (centres unmarked) [Compound 10, reference compound]
1.75

Name the reported log10 solubility kinetic at 1 h value associated with the molecule COc1cc2c(cc1Nc1ncc(Cl)c(N3CC(C(=O)O)c4ccccc43)n1)CN(C)CC2 (centres unmarked) [Compound 7, reference compound]
0.89

Name the reported log10 solubility kinetic at 1 h value associated with the molecule CN1CCc2cc(F)c(Nc3ncc(Cl)c(N4CC(C)(CC(=O)O)c5ccccc54)n3)cc2C1 (centres unmarked)
1.67

Name the reported log10 solubility kinetic at 1 h value associated with the molecule COc1cc2c(cc1Nc1ncc(Cl)c(N3CC(C)(CC(=O)O)c4ccccc43)n1)CN(C)CC2 (centres unmarked)
0.18

Name the reported log10 solubility kinetic at 1 h value associated with the molecule COc1cc2c(cc1Nc1ncc(Cl)c(N3CC(CC(=O)O)c4ccccc43)n1)CN(C)CC2 (centres unmarked) [Compound 8, reference compound]
1.79

---

Give half-life at 1 µM for every item shown.
Test: Metabolic stability in liver microsomes, mouse (MLM)
Format: in vitro ADME, CD-1 mouse
Settings: CD-1, mouse, liver microsomes, pH 7.4, 0.5 mg/mL protein, 1 µM compound, NADPH, read-out: Metabolic Stability T½ (min), MLM
Description: This assay is for determining the stability of test compound in liver microsomes. The study will be conducted in accordance with International Bioethical Standards “World Medical Association Declaration of […] The % parent remaining at each incubation time point is calculated by comparing to the peak area ratio (compound peak area/internal standard peak area) at T0 (0 minute incubation). The ln peak area ratio is plotted against time and the gradient of the line is determined. […]
Quick note: give the figure in min, leave out the unit.

Name the reported half-life at 1 µM value associated with the molecule CN1CCc2cc(F)c(Nc3ncc(Cl)c(N4CC(C)(CC(=O)O)c5ccccc54)n3)cc2C1 (stereo not drawn)
79.4

Name the reported half-life at 1 µM value associated with the molecule COc1cc2c(cc1Nc1ncc(Cl)c(N3CC(C)(CC(=O)O)c4ccccc43)n1)CN(C)CC2 (single isomer, unassigned) [Example 2]
101

Name the reported half-life at 1 µM value associated with the molecule COc1cc2c(cc1Nc1ncc(Cl)c(N3CC(C)(CC(=O)O)c4ccccc43)n1)CN(C)CC2 (stereo not drawn) [Example 1]
84

Name the reported half-life at 1 µM value associated with the molecule COc1cc2c(cc1Nc1ncc(Cl)c(N3CC(CC(=O)O)c4ccccc43)n1)CN(C)CC2 (stereo not drawn) [Compound 8, reference compound]
145

Name the reported half-life at 1 µM value associated with the molecule COc1cc2c(cc1Nc1ncc(Cl)c(N3CC(C)(CC(=O)O)c4ccc(F)cc43)n1)CN(C)CC2 (stereo not drawn) [Compound 10, reference compound]
46.1

---

target: HPK1 (Homo sapiens (Human), UniProt Q92918); assay: HPK1 biochemical assay (ADP-GLO Kinase Assay); conditions: ADP-GLO, 10 µM ATP, MBP substrate; read-out: HPK1 IC50
Sequence (Q92918 whole entry): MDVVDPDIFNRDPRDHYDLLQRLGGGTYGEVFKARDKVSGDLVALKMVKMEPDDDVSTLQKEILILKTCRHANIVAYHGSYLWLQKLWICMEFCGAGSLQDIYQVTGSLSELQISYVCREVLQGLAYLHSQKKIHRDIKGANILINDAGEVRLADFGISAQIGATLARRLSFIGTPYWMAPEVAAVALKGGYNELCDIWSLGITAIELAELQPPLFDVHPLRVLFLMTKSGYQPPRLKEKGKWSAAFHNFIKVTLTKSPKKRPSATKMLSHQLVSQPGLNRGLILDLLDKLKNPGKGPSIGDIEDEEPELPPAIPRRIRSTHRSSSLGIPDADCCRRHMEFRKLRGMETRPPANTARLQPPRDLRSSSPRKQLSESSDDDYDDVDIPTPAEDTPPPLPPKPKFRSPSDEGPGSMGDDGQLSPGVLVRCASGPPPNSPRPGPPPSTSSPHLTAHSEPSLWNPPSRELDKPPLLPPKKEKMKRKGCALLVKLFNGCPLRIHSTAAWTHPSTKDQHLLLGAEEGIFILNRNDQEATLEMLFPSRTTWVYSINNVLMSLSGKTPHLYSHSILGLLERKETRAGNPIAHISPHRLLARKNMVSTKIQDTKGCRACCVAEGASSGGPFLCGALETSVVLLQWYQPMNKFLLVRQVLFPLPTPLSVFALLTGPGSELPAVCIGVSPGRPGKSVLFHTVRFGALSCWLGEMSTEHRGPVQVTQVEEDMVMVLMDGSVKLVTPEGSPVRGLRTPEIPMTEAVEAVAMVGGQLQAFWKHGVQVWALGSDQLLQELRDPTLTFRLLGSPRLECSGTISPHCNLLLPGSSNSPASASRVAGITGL
MEASURED_ENDPOINT: pIC50
Keep in mind that pIC50 stands for -log10 of concentration in molar terms.

Name the reported pIC50 value associated with the compound COc1cc2c(cc1Nc1ncc(Cl)c(N3CC(C(=O)O)c4ccccc43)n1)CN(C)CC2 (stereo not drawn) [Compound 7, reference compound]
9.00

Name the reported pIC50 value associated with the compound COc1cc2c(cc1Nc1ncc(Cl)c(N3CC(C)(CC(=O)O)c4ccccc43)n1)CN(C)CC2 (single isomer, unassigned) [Example 2]
9.70

Name the reported pIC50 value associated with the compound COc1cc2c(cc1Nc1ncc(Cl)c(N3CC(C)(CC(=O)O)c4cc(F)ccc43)n1)CN(C)CC2 (stereo not drawn) [Compound 9, reference compound]
8.96

Name the reported pIC50 value associated with the compound COc1cc2c(cc1Nc1ncc(Cl)c(N3CC(CC(=O)O)c4ccccc43)n1)CN(C)CC2 (stereo not drawn) [Compound 8, reference compound]
8.82

Name the reported pIC50 value associated with the compound COc1cc2c(cc1Nc1ncc(Cl)c(N3CC(C)(CC(=O)O)c4ccccc43)n1)CN(C)CC2 (stereo not drawn) [Example 1]
9.30

Name the reported pIC50 value associated with the compound CN1CCc2cc(F)c(Nc3ncc(Cl)c(N4CC(C)(CC(=O)O)c5ccccc54)n3)cc2C1 (stereo not drawn) [Example 4]
9.15

Name the reported pIC50 value associated with the compound COc1cc2c(cc1Nc1ncc(Cl)c(N3C[C@@](C)(CC(=O)O)c4ccccc43)n1)CN(C)CC2 (single isomer, unassigned) [Example 3]
7.62

Name the reported pIC50 value associated with the compound COc1cc2c(cc1Nc1ncc(Cl)c(N3CC(C)(CC(=O)O)c4ccc(F)cc43)n1)CN(C)CC2 (stereo not drawn) [Compound 10, reference compound]
9.30

Name the reported pIC50 value associated with the compound CN1CCc2cc(F)c(Nc3ncc(Cl)c(N4C[C@](C)(CC(=O)O)c5ccccc54)n3)cc2C1 (single isomer, unassigned) [Example 5]
9.70

---

Give Max fold change for every item shown.
tested on: Human Pan T cells; assay: IL2 & IFN-γ released by human pan T cell (ELISA); type: cell-based; conditions: IL-2 response over DMSO control, human pan T cells

Name the reported Max fold change value associated with the molecule COc1cc2c(cc1Nc1ncc(Cl)c(N3CC(C)(CC(=O)O)c4ccccc43)n1)CN(C)CC2 (single isomer, unassigned) [Example 2]
3.2 (N = 10)

Name the reported Max fold change value associated with the molecule COc1cc2c(cc1Nc1ncc(Cl)c(N3CC(C)(CC(=O)O)c4ccccc43)n1)CN(C)CC2 (stereo not drawn) [Example 1]
3.98 (N = 5)

Name the reported Max fold change value associated with the molecule COc1cc2c(cc1Nc1ncc(Cl)c(N3CC(CC(=O)O)c4ccccc43)n1)CN(C)CC2 (stereo not drawn) [Compound 8, reference compound]
3.29 (N = 2)

Name the reported Max fold change value associated with the molecule COc1cc2c(cc1Nc1ncc(Cl)c(N3CC(C)(CC(=O)O)c4ccc(F)cc43)n1)CN(C)CC2 (stereo not drawn) [Compound 10, reference compound]
3.05 (N = 5)

Name the reported Max fold change value associated with the molecule CN1CCc2cc(F)c(Nc3ncc(Cl)c(N4C[C@](C)(CC(=O)O)c5ccccc54)n3)cc2C1 (single isomer, unassigned) [Example 5]
3.88

Name the reported Max fold change value associated with the molecule COc1cc2c(cc1Nc1ncc(Cl)c(N3CC(C(=O)O)c4ccccc43)n1)CN(C)CC2 (stereo not drawn) [Compound 7, reference compound]
3.2 (N = 6)

Name the reported Max fold change value associated with the molecule COc1cc2c(cc1Nc1ncc(Cl)c(N3C[C@@](C)(CC(=O)O)c4ccccc43)n1)CN(C)CC2 (single isomer, unassigned) [Example 3]
1.96 (N = 2)

Name the reported Max fold change value associated with the molecule CN1CCc2cc(F)c(Nc3ncc(Cl)c(N4CC(C)(CC(=O)O)c5ccccc54)n3)cc2C1 (stereo not drawn) [Example 4]
3.84 (N = 2)

Name the reported Max fold change value associated with the molecule COc1cc2c(cc1Nc1ncc(Cl)c(N3CC(C)(CC(=O)O)c4cc(F)ccc43)n1)CN(C)CC2 (stereo not drawn) [Compound 9, reference compound]
3.24 (N = 2)
